Reported drug sensitivity score values for the following molecules.
# Test system: Kuramochi
# protocol: drug sensitivity score (DSS) from 5-point dose-response viability curve (DSS (area-under-curve based score)); higher = more sensitive (stronger growth inhibition or killing); extreme values may be limits of the assay
# recorded_conditions: exposure time: 72 h; concentration range: 5 concentrations over 10,000-fold range
recorded_endpoint: drug sensitivity score

mol=CCCCCCCCc1ccc(CCC(N)(CO)CO)cc1 recorded_endpoint="drug sensitivity score" result_value=7.5
mol=CC(=O)O[C@H]1C(=O)[C@@]2(C)[C@H]([C@H](OC(=O)c3ccccc3)[C@]3(O)C[C@H](OC(=O)[C@H](O)[C@@H](NC(=O)c4ccccc4)c4ccccc4)C(C)=C1C3(C)C)[C@]1(OC(C)=O)CO[C@@H]1C[C@@H]2O recorded_endpoint="drug sensitivity score" result_value=13.8
mol=Cc1cc(F)c(C(=O)Nc2cccc(-c3nncn3C(C)C)n2)cc1-n1cnc(C2CC2)c1 recorded_endpoint="drug sensitivity score" result_value=0
mol=CC(C)N(CCCNC(=O)Nc1ccc(C(C)(C)C)cc1)C[C@H]1O[C@@H](n2cc(Br)c3c(N)ncnc32)[C@H](O)[C@@H]1O recorded_endpoint="drug sensitivity score" result_value=0
mol=N#CC[C@H](C1CCCC1)n1cc(-c2ncnc3[nH]ccc23)cn1 recorded_endpoint="drug sensitivity score" result_value=0
mol=Nc1nc2[nH]cc(CCc3ccc(C(=O)N[C@@H](CCC(=O)O)C(=O)O)cc3)c2c(=O)[nH]1 recorded_endpoint="drug sensitivity score" result_value=5.8
mol=O=C(c1ccc(F)c(F)c1Nc1ccc(I)cc1F)N1CC(O)([C@@H]2CCCCN2)C1 recorded_endpoint="drug sensitivity score" result_value=4.6
mol=Cc1nc(Nc2ncc(C(=O)Nc3c(C)cccc3Cl)s2)cc(N2CCN(CCO)CC2)n1 recorded_endpoint="drug sensitivity score" result_value=18.5
mol=COc1cc2/c(=N/c3ccc(Br)cc3F)nc[nH]c2cc1OCC1CCN(C)CC1 recorded_endpoint="drug sensitivity score" result_value=2.9
mol=COc1cc2ncnc(Nc3ccc(F)c(Cl)c3)c2cc1NC(=O)/C=C/CN1CCCCC1 recorded_endpoint="drug sensitivity score" result_value=2.4
mol=CN1CCN(C2CCN(C(=O)Nc3cc(Oc4ccc(NC(=O)C5(C(=O)Nc6ccc(F)cc6)CC5)c(F)c4)ccn3)CC2)CC1 recorded_endpoint="drug sensitivity score" result_value=0.8
mol=C=CC(=O)Nc1cccc(Nc2nc(Nc3ccc(OCCOC)cc3)ncc2F)c1 recorded_endpoint="drug sensitivity score" result_value=1.6
mol=COc1cc(OC)cc(N(CCNC(C)C)c2ccc3ncc(-c4cnn(C)c4)nc3c2)c1 recorded_endpoint="drug sensitivity score" result_value=0
mol=CNC(=O)c1cccc(-c2ccc3c(N4CCOC[C@@H]4C)nc(N4CCOC[C@@H]4C)nc3n2)c1 recorded_endpoint="drug sensitivity score" result_value=11.5
mol=Cc1ncc(-c2ccnc(Nc3ccc(S(C)(=O)=O)cc3)n2)n1C(C)C recorded_endpoint="drug sensitivity score" result_value=6.8
mol=Oc1ncnc2[nH]ncc12 recorded_endpoint="drug sensitivity score" result_value=0
